- Tested on: MC3T3-E1 cells
- ASSAY: Cell metabolic activity (EZ4U, MTT similar assay)
- Format: cell-based, mouse
- STUDY_CONDITIONS: 24 hours of treatment, read-out: half-maximal effective concentration (EC50), cell metabolic activity
pEC50: −log10 of the molar value.
Measured pEC50, listed per entry.

MOLECULE | pEC50
C[S+]([O-])CCCCN=C=S (racemic) [DL-SFN] | ~4.89

Now consider a different molecule.
Sample C[S+]([O-])CCCCN=C=S [L-SFN] — what was its pEC50?
~4.32

All values here come from patent US20180133211A1.
